- System: human NOX5 (hNOX5) (Homo sapiens, UniProt Q96PH1)
- Sequence (Q96PH1 whole entry): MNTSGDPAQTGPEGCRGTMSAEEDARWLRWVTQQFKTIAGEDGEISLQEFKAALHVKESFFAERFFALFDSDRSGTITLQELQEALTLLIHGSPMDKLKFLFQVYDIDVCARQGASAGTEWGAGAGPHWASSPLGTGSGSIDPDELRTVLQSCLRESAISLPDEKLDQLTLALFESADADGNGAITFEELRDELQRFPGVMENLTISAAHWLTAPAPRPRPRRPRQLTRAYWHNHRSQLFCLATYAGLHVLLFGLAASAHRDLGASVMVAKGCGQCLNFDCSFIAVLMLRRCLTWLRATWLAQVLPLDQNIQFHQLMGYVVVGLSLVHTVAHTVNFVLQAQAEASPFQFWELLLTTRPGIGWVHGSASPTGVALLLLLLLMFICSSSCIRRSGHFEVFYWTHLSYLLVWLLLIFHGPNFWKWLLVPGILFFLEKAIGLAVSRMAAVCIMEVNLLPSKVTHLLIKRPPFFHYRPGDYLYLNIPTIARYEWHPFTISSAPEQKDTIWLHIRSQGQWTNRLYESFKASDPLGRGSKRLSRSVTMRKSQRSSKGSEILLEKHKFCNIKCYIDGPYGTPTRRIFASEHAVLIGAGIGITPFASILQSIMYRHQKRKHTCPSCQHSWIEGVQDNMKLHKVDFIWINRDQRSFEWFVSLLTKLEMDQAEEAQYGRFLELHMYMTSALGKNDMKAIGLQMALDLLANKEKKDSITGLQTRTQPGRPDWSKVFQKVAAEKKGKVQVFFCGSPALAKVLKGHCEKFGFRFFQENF
- Assay: NOX5 inhibition assay (L-012), HEK293 cells stably overexpressing human NOX5
- Test Settings: HEK293-hNOX5, PMA stimulated
- Method: The synthetic gene hNOX5 (Accession: Q96PH1) is cloned into pcDNA3.1_Zeo. […] The final construct is verified by sequencing. Evaluation of the NOX4 inhibitors on NOX5 activity is assessed in HEK293 cells stably overexpressing human NOX5 (hNOX5). Cells are seeded in 384 well plates over-night. […] Cells are then stimulated with PMA at 0.1 μM to induce NOX5-dependent ROS production. […] Luminescence is measured with an PHERAstar multimode reader.
Property Name: IC50 (µM)
Record the value in µM, omitting the unit from your answer.

What does the record list as IC50 for `O=c1c2scnc2nc(SCc2ccc(Cl)cc2Cl)n1-c1cnc(O)c(F)c1` ? 47.9

What does the record list as IC50 for `O=c1c2scnc2nc(SCc2c(F)cc(F)cc2F)n1-c1ccc(O)c(Cl)c1` ? 36

* * *

- System: human NOX3 (hNOX3) (Homo sapiens, UniProt Q9HBY0)
- Construct: pLV-CMV-hNOX3-puro (NM_015718.3)
- Sequence (Q9HBY0 1-568): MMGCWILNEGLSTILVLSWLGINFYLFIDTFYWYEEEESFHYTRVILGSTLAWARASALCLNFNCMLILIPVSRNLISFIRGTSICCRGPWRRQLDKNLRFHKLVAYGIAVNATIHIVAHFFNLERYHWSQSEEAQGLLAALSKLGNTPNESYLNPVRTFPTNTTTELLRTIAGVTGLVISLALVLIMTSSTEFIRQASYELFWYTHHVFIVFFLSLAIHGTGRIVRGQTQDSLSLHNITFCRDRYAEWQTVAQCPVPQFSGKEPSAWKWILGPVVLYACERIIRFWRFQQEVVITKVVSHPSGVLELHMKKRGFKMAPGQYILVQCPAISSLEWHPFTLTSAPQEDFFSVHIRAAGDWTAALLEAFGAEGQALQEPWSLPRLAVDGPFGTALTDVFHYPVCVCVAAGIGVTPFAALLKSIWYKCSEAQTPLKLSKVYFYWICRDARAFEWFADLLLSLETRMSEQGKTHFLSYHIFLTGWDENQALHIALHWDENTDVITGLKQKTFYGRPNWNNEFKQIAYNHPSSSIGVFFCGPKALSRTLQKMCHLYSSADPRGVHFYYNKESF
- Sequence (P13498 2-195 partner limits assumed): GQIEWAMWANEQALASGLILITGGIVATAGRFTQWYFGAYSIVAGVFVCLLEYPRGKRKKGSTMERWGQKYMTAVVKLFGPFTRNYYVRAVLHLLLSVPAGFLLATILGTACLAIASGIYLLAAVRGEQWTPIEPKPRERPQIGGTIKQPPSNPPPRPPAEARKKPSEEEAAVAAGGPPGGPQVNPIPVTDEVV
- Assay: NOX3 inhibition assay (L-012), HEK293 cells stably overexpressing human NOX3
- Test Settings: HEK293-hNOX3, PMA stimulated
Hi! Just check whether IC50 is below 60 µM. Below gives label 1, equal or above gives label 0.

Field: example entries. Status: answers known.
Problem: For the compound `O=c1c2scnc2nc(SCc2c(F)cc(F)cc2F)n1-c1ccc(O)cc1` , is IC50 under 60 µM? label 0

Problem: For the compound `O=c1c2scnc2nc(SCc2ccc(Cl)cc2)n1-c1cnc(O)nc1` , is IC50 under 60 µM? label 0

Problem: For the compound `O=c1c2scnc2nc(SCc2c(F)ccc(F)c2F)n1-c1cnc(O)c(F)c1` , is IC50 under 60 µM? label 0

Problem: For the compound `O=c1c2scnc2nc(SCc2ccc(Cl)cc2F)n1-c1cnc(O)nc1` , is IC50 under 60 µM? label 0

Problem: For the compound `Cc1cc(Cl)ccc1CSc1nc2ncsc2c(=O)n1-c1cnc(O)c(F)c1` , is IC50 under 60 µM? label 0

More entries:
Problem: For the compound `O=c1c2scnc2nc(SCc2c(F)cc(F)cc2F)n1-c1cc(F)c(O)cc1F` , is IC50 under 60 µM? label 1

Problem: For the compound `O=c1c2scnc2nc(SCc2c(F)cc(F)cc2F)n1-c1ccc(O)cc1F` , is IC50 under 60 µM? label 1

Problem: For the compound `Cc1cc(F)cc(C)c1CSc1nc2ncsc2c(=O)n1-c1ccc(O)nn1` , is IC50 under 60 µM? label 0

Problem: For the compound `O=c1c2scnc2nc(SCc2c(F)cc(F)cc2F)n1-c1ccc(O)nc1F` , is IC50 under 60 µM? label 0

* * *

Documented pIC50 across a set of molecules
- System: NOX2 (Homo sapiens)
- Construct: endogenous in cells
- Sequence (P04839 2-570 limits assumed): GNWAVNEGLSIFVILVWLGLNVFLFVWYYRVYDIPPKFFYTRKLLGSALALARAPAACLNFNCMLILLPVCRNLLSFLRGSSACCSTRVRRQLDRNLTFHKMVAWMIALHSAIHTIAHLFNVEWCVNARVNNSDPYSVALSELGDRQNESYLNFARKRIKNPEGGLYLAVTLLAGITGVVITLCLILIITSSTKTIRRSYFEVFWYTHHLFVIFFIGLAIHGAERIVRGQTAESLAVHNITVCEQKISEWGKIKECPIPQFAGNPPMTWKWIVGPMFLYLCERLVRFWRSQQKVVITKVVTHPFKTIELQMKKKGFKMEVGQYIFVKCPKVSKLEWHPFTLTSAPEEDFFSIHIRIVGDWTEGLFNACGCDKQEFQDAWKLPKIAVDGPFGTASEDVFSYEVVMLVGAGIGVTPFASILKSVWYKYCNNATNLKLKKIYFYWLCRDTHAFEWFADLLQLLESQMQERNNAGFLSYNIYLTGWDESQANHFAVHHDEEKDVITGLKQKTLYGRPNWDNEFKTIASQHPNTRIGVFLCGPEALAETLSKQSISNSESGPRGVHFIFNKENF
- Sequence (P13498 2-195 partner limits assumed): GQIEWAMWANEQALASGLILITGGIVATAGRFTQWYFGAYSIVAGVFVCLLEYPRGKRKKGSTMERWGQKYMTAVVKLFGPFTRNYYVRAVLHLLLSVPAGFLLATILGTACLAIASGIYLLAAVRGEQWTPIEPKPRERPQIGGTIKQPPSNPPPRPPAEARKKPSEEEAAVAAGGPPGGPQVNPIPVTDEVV
- Assay: NOX2 inhibition assay (L-012), human blood-derived granulocytes
- Test Settings: fMLP/PMA stimulated
pIC50: −log10 of the molar value.

What does the record list as pIC50 for O=c1c2scnc2nc(SCc2ccc(C(F)(F)F)cc2F)n1-c1cc(F)c(O)c(F)c1 [Example 6] ? < 4.00

What does the record list as pIC50 for Cc1cc(Cl)ccc1CSc1nc2ncsc2c(=O)n1-c1cc(F)c(O)c(F)c1 [Example 3] ? < 4.00

What does the record list as pIC50 for O=c1c2scnc2nc(SCc2c(F)cc(F)cc2F)n1-c1c(F)cc(O)cc1F [Example 13] ? 4.07

What does the record list as pIC50 for O=c1c2scnc2nc(SCc2c(F)cc(F)cc2F)n1-c1ccc(O)c(F)c1F [Example 12] ? < 4.52

What does the record list as pIC50 for O=c1c2scnc2nc(SCc2ccc(Cl)cc2)n1-c1ccc(O)nn1 [Example 64] ? < 4.00

What does the record list as pIC50 for Cc1cc(F)ccc1CSc1nc2ncsc2c(=O)n1-c1cc(F)c(O)c(F)c1 [Example 9] ? < 4.00

More entries:
What does the record list as pIC50 for O=c1c2scnc2nc(SCc2ccc(C(F)(F)F)cc2)n1-c1ccc(O)nc1 [Example 27] ? < 4.00

What does the record list as pIC50 for O=c1c2scnc2nc(SCc2ccc(F)cc2Br)n1-c1cnc(O)c(F)c1 [Example 44] ? < 4.00

What does the record list as pIC50 for O=c1c2scnc2nc(SCc2ccc(Cl)cc2)n1-c1cnc(O)nc1 [Example 56] ? < 4.00

What does the record list as pIC50 for O=c1c2scnc2nc(SCc2ccc(C(F)(F)F)cc2F)n1-c1ccc(O)nn1 [Example 65] ? < 4.00

What does the record list as pIC50 for N#Cc1cc(-n2c(SCc3c(F)cc(F)cc3F)nc3ncsc3c2=O)ccc1O [Example 18] ? < 4.52

* * *

Documented IC50 across a set of molecules
- System: human NOX5 (hNOX5) (Homo sapiens, UniProt Q96PH1)
- Assay: NOX5 inhibition assay (L-012), HEK293 cells stably overexpressing human NOX5
- Test Settings: HEK293-hNOX5, PMA stimulated

Consider the reported IC50 for these molecules:
What does the record list as IC50 for `Cc1cc(Cl)ccc1CSc1nc2ncsc2c(=O)n1-c1cc(F)c(O)c(F)c1` ? > 100 µM

What does the record list as IC50 for `O=c1c2scnc2nc(SCc2c(F)cc(F)cc2F)n1-c1ncc(O)cn1` ? > 100 µM

What does the record list as IC50 for `O=c1c2scnc2nc(SCc2ccc(C(F)(F)F)cc2)n1-c1cc(F)c(O)c(F)c1` ? > 100 µM

Consider the record given below.
What does the record list as IC50 for `Cc1cc(Cl)ccc1CSc1nc2ncsc2c(=O)n1-c1cnc(O)c(F)c1` ? 64.5 µM
